Kindly state Bliss excess for each of the entries shown.
System: NCI-H2170 (Squamous Cell Lung Carcinoma);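 further: after 72 h of two-drug dosing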
Procedure Details: Bliss excess, mean over the matrix (fraction); higher = more synergy
Give bare numbers.

CS(=O)(=O)CCNCc1ccc(-c2ccc3ncnc(Nc4ccc(OCc5cccc(F)c5)c(Cl)c4)c3c2)o1 [Lapatinib] + C[C@@H](Oc1cc(-c2cnn(C3CCNCC3)c2)cnc1N)c1c(Cl)ccc(F)c1Cl [Crizotinib] (first compound max 10 µM, 7x7, partner max 10 µM); -0.0026

Attention now shifts to the item below.
Enquiry: Could you tell me which Bliss excess is on file for C=CCn1c(=O)c2cnc(Nc3ccc(N4CCN(C)CC4)cc3)nc2n1-c1cccc(C(C)(C)O)n1 [AZD1775] + C[C@@H]1COCCN1C2=NC(=NC(=C2)C3(CC3)[S@](=N)(=O)C)C4=C5C=CNC5=NC=C4 [AZD6738] (first compound max 1 µM, partner max 10 µM) ?
Return: -0.0253
